Answer each item with its documented t1/2 at 40° C..
- Details: heavy-duty liquid detergent, pH 4.5
Numeric only. Scale: days

Sample "O=C(Nc1ccc(C(=O)OO)cc1)c1ccc(C(=O)Nc2ccc(C(=O)OO)cc2)cc1" — what was its t1/2 at 40° C.? 65

What value of measured t1/2 at 40° C. is listed for "O=C(CCCCC(=O)OO)Nc1ccc(NC(=O)CCCCC(=O)OO)cc1" ? 32

Item "O=C(NCCCCNC(=O)c1ccc(C(=O)OO)cc1)c1ccc(C(=O)OO)cc1" has what recorded t1/2 at 40° C.? 15

Which t1/2 at 40° C. value belongs to "O=C(CCC(=O)Nc1ccc(C(=O)OO)cc1)Nc1ccc(C(=O)OO)cc1" ? 43

GET /values?readout=t1/2 at 40° C.&item= "O=C(Nc1ccccc1NC(=O)c1ccc(C(=O)OO)cc1)c1ccc(C(=O)OO)cc1" 33

Give its t1/2 at 40° C. value. Item: "O=C(OO)c1ccc(C(=O)N2CCN(C(=O)c3ccc(C(=O)OO)cc3)CC2)cc1" 79

What value of t1/2 at 40° C. has been recorded for this entry: O=C(CCCCCN1C(=O)c2ccccc2C1=O)OO [PAP, N-phthaloylamino peroxycaproic acid, reference compound] 3

====

- Assay Protocol: Bleaching of tea (BC-1) stained cotton in Terg-o-tometer, reflectance change
- Details: pH 9, 40° C., 10 ppm A.O., P-Surf base (1.5 g/l), 15 minutes; average of duplicates
Metric: BC-1 ΔΔR pH 9
Could you keep your reply to the number by itself?

Reported BC-1 ΔΔR pH 9, compound "O=C(NCCCCNC(=O)c1ccc(C(=O)OO)cc1)c1ccc(C(=O)OO)cc1" : ____ 9.4

# BC-1 ΔΔR pH 9 lookup, item "O=C(OO)c1ccc(C(=O)N2CCN(C(=O)c3ccc(C(=O)OO)cc3)CC2)cc1" 2.9

I have this compound here, "O=C(CCC(=O)Nc1ccc(C(=O)OO)cc1)Nc1ccc(C(=O)OO)cc1" , and I need its recorded BC-1 ΔΔR pH 9. 3.3

Could you tell me which BC-1 ΔΔR pH 9 is on file for "O=C(NCCNC(=O)c1ccc(C(=O)OO)cc1)c1ccc(C(=O)OO)cc1" ? 9.0

Query (compound): "O=C(Nc1ccccc1NC(=O)c1ccc(C(=O)OO)cc1)c1ccc(C(=O)OO)cc1" ; field requested: BC-1 ΔΔR pH 9 4.1

# get_value(readout='BC-1 ΔΔR pH 9', item= "O=C(CCCCC(=O)OO)Nc1ccc(NC(=O)CCCCC(=O)OO)cc1" ) 6.7

I would be grateful if you could share the reported BC-1 ΔΔR pH 9 for "O=C(Nc1ccc(C(=O)OO)cc1)c1ccc(C(=O)Nc2ccc(C(=O)OO)cc2)cc1" . 1.5

Request the reported BC-1 ΔΔR pH 9 associated with "O=C(N[C@H]1CC[C@H](NC(=O)c2ccc(C(=O)OO)cc2)CC1)c1ccc(C(=O)OO)cc1" 2.1
